Data origin, for the record: patent US5965701A

What μ/κ Ratio (binding affinity for KOR versus MOR) was measured for each of the following?
# measuredOn: cloned human kappa (hKOR) receptor (Homo sapiens, UniProt P41145)
# Construct: expressed in transfected cells; host or cells: HN9.10 (mouse hippocampal neuroblastoma), stably transfected
# Sequence (P41145 whole entry): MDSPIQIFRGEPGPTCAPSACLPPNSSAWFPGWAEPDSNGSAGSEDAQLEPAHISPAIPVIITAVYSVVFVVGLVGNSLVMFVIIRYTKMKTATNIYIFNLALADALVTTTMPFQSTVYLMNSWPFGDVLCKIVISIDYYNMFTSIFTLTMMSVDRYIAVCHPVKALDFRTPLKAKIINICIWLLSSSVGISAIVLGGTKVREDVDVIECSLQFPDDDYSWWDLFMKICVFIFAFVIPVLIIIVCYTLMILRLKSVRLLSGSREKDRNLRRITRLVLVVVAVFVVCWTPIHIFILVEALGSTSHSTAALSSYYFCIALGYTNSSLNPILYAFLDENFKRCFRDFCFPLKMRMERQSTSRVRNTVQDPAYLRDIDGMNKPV
# assayComment: biochemical
# Assay type: binding
# condition: Ki MOR / Ki KOR
Where a SMILES comes first, the peptide text is derived from it. [ ]: non-standard residue; d: D form. The star is where a group is joined. NH(thiazol-2-yl) = c1csc(N*)n1; dNle = CCCC[C@@H](N)C(=O)O; NHBn = c1ccc(CN*)cc1; NHcPr = C1CC1N*

Query: Find the recorded μ/κ Ratio (binding affinity for KOR versus MOR) belonging to CCCC[C@@H](NC(=O)[C@@H](Cc1ccccc1)NC(=O)[C@H](N)Cc1ccccc1)C(=O)N[C@H](CCCNC(=N)N)C(=O)NCc1ccccc1 [Peptide 14, H-D-Phe-D-Phe-D-Nle-D-Arg-NHBzl] (H-[dF][dF][dNle][dR]-NHBn) and report it.
Reply: 2,000

Query: Same lookup for CCCC[C@@H](NC(=O)[C@@H](Cc1ccccc1)NC(=O)[C@H](N)Cc1ccccc1)C(=O)N[C@H](CCCNC(=N)N)C(=O)Nc1nccs1 [Peptide 13, H-D-Phe-D-Phe-D-Nle-D-Arg-NH(2-Tzl)] (H-[dF][dF][dNle][dR]-{NH(thiazol-2-yl)}) , please.
Reply: 2,700

Query: Same lookup for CCCC[C@@H](NC(=O)[C@@H](Cc1ccccc1)NC(=O)[C@H](N)Cc1ccccc1)C(=O)N[C@H](CCCNC(=N)N)C(=O)NC1CC1 [Peptide 5, H-D-Phe-D-Phe-D-Nle-D-Arg-NH(Cyp)] (H-[dF][dF][dNle][dR]-NHcPr) , please.
Reply: 20,000

Query: Same lookup for CCCC[C@@H](NC(=O)[C@@H](Cc1ccccc1)NC(=O)[C@H](N)Cc1ccccc1)C(=O)N[C@H](CCCNC(=N)N)C(=O)NC [Peptide 2, H-D-Phe-D-Phe-D-Nle-D-Arg-NHMe] (H-[dF][dF][dNle][dR]-NHMe) , please.
Reply: 60,000
